Provide the reported GI50 of each item.
Test system: HL-60(TB) leukemia
ASSAY NAME: NCI tumour cell line growth inhibition, 48 h

For every item below, please supply its GI50.
1. CN(C)c1ccc2cc3c(cc2c1)Oc1ccccc1N3.[Cl][Zn][Cl]
2. O=C(C(=O)c1cccnc1)c1cccnc1
3. COc1cc(Cn2c3ccccc3c3cc(C)cc(OC)c32)cc2c1[nH]c1ccccc12
4. CN1CCN(C(=O)[C@@]2(C)CC[C@]3(C)CC[C@]4(C)C(=CC[C@@H]5[C@@]6(C)CC[C@H](OC(=O)c7cccnc7)C(C)(C)[C@@H]6CC[C@]54C)[C@@H]3C2)CC1

["2610 nM", "> 100000 nM", "12300 nM", "1440 nM"]

Go through the items and report each one's GI50.
1. CCN(CC)CCNc1ccc(N=Nc2cnc3ccccc3c2)c2ccccc12
2. COc1ccc2[nH]cc(Cc3c[nH]c4ccc(OC)cc34)c2c1
3. CCCn1cc(/C=N\N=C2\C(=O)Nc3ccc(C)cc32)c2ccccc21

1340 nM
44200 nM
1310 nM

Could I get GI50 for every one of these entries?
1. COc1cc(C(=O)c2cnc(-c3ccc4cc[nH]c4c3)[nH]2)cc(OC)c1OC
2. O=c1oc2c(O)c(O)cc3c(=O)oc4c(O)c(O)cc1c4c23
3. C#Cc1cccc(Nc2ncnc3ccc(-c4cnc(N)nc4)cc23)c1
4. N#Cc1ccc(C(=O)c2cnn(-c3ccc(F)cc3)c2N)cc1
5. O=C(Nc1cccc(-n2ccc3c(NC(=O)c4ccccc4)nccc32)c1)c1ccc(Cl)c(Cl)c1
6. COc1cc2c(cc1OC)-c1c(c3ccc([N+](=O)[O-])cc3c(=O)n1CCCN=[N+]=[N-])C2=O
7. O=C1c2c(c3c4ccccc4n(CCCCCCN4CCOCC4)c3c3[nH]c4ccccc4c23)C(=O)N1O
8. CN(CO)c1nc(N(C)CO)nc(N(C)CO)n1

22.4 nM
> 100000 nM
2590 nM
> 25000 nM
188 nM
73000 nM
2490 nM
26000 nM

Hey, can you go through the list below and give me GI50 for every item?
1. Cc1cnc(-c2ccc(-c3ccc(NC(=O)Nc4cccc(C(F)(F)F)c4)cc3F)c3c2C(=O)NC3)[nH]1
2. COc1ccc(C(=O)/C=C/c2c(C(F)(F)F)nc3ccccn23)cc1OC

43400 nM
758 nM

State recorded GI50 for all listed molecules.
1. CN(CCCCCCCCNc1ccnc2ccccc12)Cc1ccc(-c2ccc(-c3ccc(C#N)cc3)s2)cc1
2. CCOP(=O)(OCC)C(NC(c1ccccc1)c1ccccc1)c1ccsc1 (centres undefined)

1: 1150 nM; 2: 23000 nM

---

System: CCRF-CEM leukemia
ASSAY NAME: NCI tumour cell line growth inhibition, 48 h
QUANTITY: TGI (µM)
One number for each entry, in µM.

{"SMILES DATA": "O=C(CCN1CCCC1)Nc1ccc2c(Nc3ccc(Br)cc3)c3ccccc3nc2c1", "QUANTITY": "TGI", "UNITS TEXT": "µM", "READOUT NUMBER": 2.83}

Please give the measured TGI for this compound: COc1ccc2nc3c([N+](=O)[O-])ccc4c3c(c2c1)N=CN4CCN(C)C 9.76

---

System: OVCAR-5 ovarian
ASSAY NAME: NCI tumour cell line growth inhibition, 48 h
QUANTITY: TGI

Consider the worked cases shown below.
{"MOLECULE": "Cc1cc2oc(=O)cc(OC/C=C3/CCC(=O)O3)c2cc1C", "STUDY SYSTEM": "OVCAR-5 ovarian", "QUANTITY": "TGI", "RESULT": "22.9 µM"}
{"MOLECULE": "[O-][N+]1=C(c2ccccc2)/C(=C2/C(c3ccccc3)=[N+]([O-])c3ccccc32)Cc2ccccc21", "STUDY SYSTEM": "OVCAR-5 ovarian", "QUANTITY": "TGI", "RESULT": "> 100 µM"}
{"MOLECULE": "CC(C)C1CCC(=O)CC1CCCCC1CC(=O)CC1O[Si](C)(C)C(C)(C)C (stereo unspecified)", "STUDY SYSTEM": "OVCAR-5 ovarian", "QUANTITY": "TGI", "RESULT": "26.2 µM"}
{"MOLECULE": "CCCCCCCCCCCCCC(=O)NO", "STUDY SYSTEM": "OVCAR-5 ovarian", "QUANTITY": "TGI", "RESULT": "> 74.1 µM"}
{"MOLECULE": "Nc1n[nH]c(N)n1", "STUDY SYSTEM": "OVCAR-5 ovarian", "QUANTITY": "TGI", "RESULT": "> 9810 µM"}

Field: next molecule
// map CC(=O)c1ccc(Nc2nc3ccccc3c3occc23)cc1 to recorded TGI (system: OVCAR-5 ovarian) > 100 µM

---

Tested on: DMS 114 small cell lung
ASSAY NAME: NCI tumour cell line growth inhibition, 48 h
QUANTITY: log10 of TGI (log10 of the value in µM)
// do not treat as linear: log10 of TGI, unit µM

Answered examples (3):
{"COMPOUND": "CCCCCCCCCCCCCCCCCC(=O)NCC(COP(=O)([O-])OCC[N+](C)(C)C)OCC (centres undefined)", "READOUT NUMBER": 1.52}
{"COMPOUND": "CCCCCCCCC1C(C)c2c([nH]c3ccccc23)C2C(=O)N(c3ccccc3)C(=O)C21 (centres undefined)", "READOUT NUMBER": 1.37}
{"COMPOUND": "CC(C)OP(=O)(OC(C)C)/C(=N/Nc1ccc([N+](=O)[O-])cc1)NNC(=O)c1ccccc1", "READOUT NUMBER": 1.63}

Return reported log10 of TGI values for all items listed beneath this line.
1. C[C@H]1[C@H](C)CC[C@]2(C(=O)O)CCC3(COC(=O)/C=C/c4ccc(O)cc4)C(=CCC4[C@@]5(C)CC[C@H](O)C(C)(C)C5CC[C@]43C)[C@H]12 (some centres undefined)
2. Nc1nc(N)c(CCCCc2ccccc2)c(/C=C/c2ccc([N+](=O)[O-])cc2)n1
3. C[N+]1(C)C/C(=C\C=C\c2ccccc2)C(=O)/C(=C/C=C/c2ccccc2)C1

1.51
0.63
1.04

Reported log10 of TGI for Cl.[O-]c1cccc2cccnc12.[O-]c1cccc2cccnc12.[O-]c1cccc2cccnc12.[O-]c1cccc2cccnc12.[Ti+4] : what is it? -0.44

---

Please go through the items and note down their GI50.
System: HCC-2998 colon
ASSAY NAME: NCI tumour cell line growth inhibition, 48 h

{"COMPOUND": "CN(C)C[C@@H]1CCn2cc(c3ccccc32)C2=C(C(=O)NC2=O)c2cn(c3ccccc23)CCO1", "QUANTITY": "GI50", "RESULT": "713 nM"}
{"COMPOUND": "CC[C@@]1(O)C(=O)OCc2c1cc1n(c2=O)Cc2cc3cccc(N)c3nc2-1", "QUANTITY": "GI50", "RESULT": "16600 nM"}
{"COMPOUND": "COC(=O)c1cc2c([nH]c3ccccc32)c(-c2nc3ccccc3cc2CO)n1", "QUANTITY": "GI50", "RESULT": "> 100000 nM"}
{"COMPOUND": "COC1/C=C/OC2(C)Oc3c(C)c(O)c4c(O)c(c(/C=N/N(c5ccccc5)c5ccccc5)c(O)c4c3C2=O)NC(=O)C(C)=C/C=C/C(C)C(O)C(C)C(O)C(C)C(OC(C)=O)C1C (stereo not drawn)", "QUANTITY": "GI50", "RESULT": "1710 nM"}
{"COMPOUND": "Cc1nccc2c3ccc(OCc4cn(-c5ccc(Br)cc5)nn4)cc3n(CCCc3ccccc3)c12", "QUANTITY": "GI50", "RESULT": "> 100000 nM"}
{"COMPOUND": "Cl.[O-]c1cccc2cccnc12.[O-]c1cccc2cccnc12.[O-]c1cccc2cccnc12.[O-]c1cccc2cccnc12.[Ti+4]", "QUANTITY": "GI50", "RESULT": "2100 nM"}
{"COMPOUND": "C=C1C(=O)O[C@H]2[C@H]1CC/C(CNC(=O)C(C)c1ccc(CC(C)C)cc1)=C\\CC[C@@]1(C)O[C@@H]21 (stereo partly drawn)", "QUANTITY": "GI50", "RESULT": "1830 nM"}

Attention now shifts to the item below.
Bench note: what GI50 did Cn1c2ccccc2c2c(=O)n(CCCC(=O)NCCc3cnc[nH]3)c3c(-c4ccccc4)nnn3c21 show? 9510 nM

---

Tested on: U251 CNS
ASSAY NAME: NCI tumour cell line growth inhibition, 48 h
Class fulfilled: TGI at least 20 µM. Class not fulfilled: TGI below 20 µM.

Determine whether this compound has TGI no lower than 20 µM: C[n+]1ccc2/c(=C\C#N)c3ccccc3n21 fulfilled

Does TGI meet or surpass 20 µM for O=C(O)C1C2C=CC(O2)C1C(=O)NCc1ccncc1 (stereo not given) ? fulfilled

Check the entry COc1ccc2nc3c([N+](=O)[O-])ccc4c3c(c2c1)N=CN4CCN(C)C : does TGI equal or exceed 20 µM? fulfilled

Would you say CC(O)(c1ccc(OCCC[N+](C)(C)C)cc1)C(C)(O)c1ccc(OCCC[N+](C)(C)C)cc1 (stereo not given) shows TGI at minimum 20 µM? fulfilled
